# experiment_summary: CEM21 lymphoblast cell cytotoxicity, dose response, cytotoxicity control for viral fusion inhibitor project, CellTiter-Glo luminescence, cherry-picked (AID 652042)
# run_conditions: CEM21 cells viability, CellTiter-Glo ATP luminescence, 24 h; series mostly up to 35 µM
The campaign covered roughly 1,100 compounds. About 350 (32%) were called active. Only a sample is shown. Results with a measured potency or affinity are listed apart.
measurement_label: activity change, negative = cytotoxicity

Cc1onc(-c2ccccc2)c1C(=O)OCCOc1cccc(Cl)c1    inactive
C[C@H]1CN([C@@H](C)CO)C(=O)c2ccccc2-c2ccccc2CO[C@H]1CN(C)S(=O)(=O)c1cccc(C#N)c1    inactive
CN(CC(=O)NCCc1ccc(S(N)(=O)=O)cc1)CC(=O)Nc1ccc(Cl)c(C(F)(F)F)c1    inactive
CC(C)OCCCNc1ncnc2c1[nH]c1ccccc12    inactive
COc1ccc(C(C(=O)NC(C)(C)C)N(CCC(C)C)C(=O)CCC(=O)Nc2cc(C)on2)cc1 (centres undefined)    inactive
Cc1cc(CSc2ccccc2)ccc1NC(=O)c1ccc(CN2CCOCC2)cc1    inactive

[Q] If you can, please state the reported activity change, negative = cytotoxicity value of C[C@H]1CN([C@@H](C)CO)C(=O)c2ccccc2-c2ccccc2CO[C@@H]1CN(C)C(=O)CCC(F)(F)F .
[A] inactive

[Q] Would you kindly share the measured activity change, negative = cytotoxicity for Cc1ccc(S(=O)(=O)N(C)C[C@@H]2Oc3ccc(NC(=O)Cc4cn(C)c5ccccc45)cc3CC(=O)N([C@H](C)CO)C[C@@H]2C)cc1 ?
[A] inactive

[Q] Look up activity change, negative = cytotoxicity for this molecule: O=C(NCCCN1CCc2ccccc2C1)Nc1ccc(Cl)cc1
[A] inactive

---

# experiment_summary: CEM21 lymphoblast cell cytotoxicity, dose response, cytotoxicity control for viral fusion inhibitor project, CellTiter-Glo luminescence, cherry-picked (AID 652042)
# run_conditions: CEM21 cells viability, CellTiter-Glo ATP luminescence, 24 h; series mostly up to 35 µM
Screen size: about 1,100 compounds; about 350 (32%) were called active. Not all results are given here. Results with a measured potency or affinity are listed apart.
measurement_label: activity change, negative = cytotoxicity

Reference set (5 entries):
C[C@@]12C(=O)N(CCc3c[nH]c4ccccc34)CC(=O)N1[C@H]1c3ccccc3OC[C@@H]1[C@@H]2c1ccccc1    inactive
Cn1cccc1C(=O)OCC(=O)NCCc1ccc(S(N)(=O)=O)cc1    inactive
CCCc1cc(C(=O)NCc2ccc(OC)cc2)no1    inactive
CN1C(=O)c2cc(NS(=O)(=O)c3ccccc3F)ccc2OC[C@@H]2O[C@H](CC(=O)NC3Cc4ccccc4C3)CC[C@@H]21    inactive
CCn1ncc(C2=NOC(C(=O)Nc3ccc(C)cc3)C2)c1C (stereo not drawn)    inactive

[Q] I would be grateful if you could share the reported activity change, negative = cytotoxicity for CO[C@@H]1CN(C)C(=O)c2cc(NC(=O)Nc3ccc(Cl)cc3)ccc2OC[C@H](C)N(C)C[C@H]1C .
[A] inactive

[Q] Please give the measured activity change, negative = cytotoxicity for this compound: CCN(C[C@H]1N[C@@](C)(C(=O)OC)[C@H]2C(=O)N(Cc3ccccc3)C(=O)[C@@H]12)C(=O)c1ccc(C(C)(C)C)cc1
[A] inactive

[Q] Fill in: activity change, negative = cytotoxicity of C[C@@]12C(=O)N(Cc3ccccc3)CC(=O)N1[C@H]1c3ccccc3OC[C@@H]1[C@@H]2c1ccccc1 is ___
[A] inactive

[Q] Look up activity change, negative = cytotoxicity for this compound: COc1ccc(C2N(S(=O)(=O)c3ccc(C)cc3)CCN2S(=O)(=O)c2ccc(C)cc2)cc1
[A] inactive

[Q] Which value of activity change, negative = cytotoxicity has been reported for COc1ccc(NC(=O)Nc2ccc3c(c2)N(C)C(=O)CS3)cc1Cl in the records?
[A] inactive

[Q] What measured activity change, negative = cytotoxicity goes with CCCC[C@H](CN(N=O)[C@@H](Cc1ccccc1)CN(C)N=O)N(CCc1ccccc1)N=O ?
[A] inactive

[Q] For the compound Cc1ccc2c(CN3CCN(S(=O)(=O)c4ccc5c(c4)OCCO5)CC3)cc(=O)oc2c1C , what activity change, negative = cytotoxicity is on record?
[A] inactive

[Q] I am curious: what activity change, negative = cytotoxicity value has been reported for COC(=O)CCn1nnc(-c2ccc(C(C)C)cc2)n1 ?
[A] inactive

[Q] Dear colleague, I am looking for the recorded activity change, negative = cytotoxicity of the following compound: O=C(N/N=C/c1ccc(-n2ccnc2)cc1)c1cccs1
[A] inactive

[Q] What value of measured activity change, negative = cytotoxicity is listed for COC(=O)[C@@]12CCCN1[C@H](c1ccc(-c3ccc(F)cc3)c(OC)c1)[C@H]1C(=O)N(C)C(=O)[C@H]12 ?
[A] inactive

[Q] Could you tell me which activity change, negative = cytotoxicity is on file for CC[C@@]1(C(=O)OC)N[C@H](CN(C)C(=O)c2ccc(C(C)(C)C)cc2)[C@@H]2C(=O)N(Cc3ccccc3)C(=O)[C@@H]21 ?
[A] inactive

[Q] What activity change, negative = cytotoxicity value was documented for this compound, COc1ccc(CN2CCC(C)(Oc3ccc4c(c3)OCO4)C2)c2ccccc12 (stereo not drawn) ?
[A] inactive

[Q] Please look up its activity change, negative = cytotoxicity: CCNC(=O)C[C@H]1CC[C@@H]2[C@@H](COc3ccc(NC(=O)Nc4cccc(OC)c4)cc3C(=O)N2C)O1
[A] inactive

---

# experiment_summary: CEM21 lymphoblast cell cytotoxicity, dose response, cytotoxicity control for viral fusion inhibitor project, CellTiter-Glo luminescence, cherry-picked (AID 652042)
# run_conditions: CEM21 cells viability, CellTiter-Glo ATP luminescence, 24 h; series mostly up to 35 µM
The whole screen tested about 1,100 compounds, of which about 350 (32%) were called active. The list is a sample of the results. Measured potencies and affinities stand elsewhere.
measurement_label: activity change, negative = cytotoxicity

These recorded examples may help you get a feel for the data.
C=CCN([C@@H](CC(C)C)C(=O)OC)S(=O)(=O)N(CC=C)[C@@H](CC(C)C)C(=O)OC    inactive
CC(C)(C)c1ccc(-n2ncc3c2CCCC3NC(=O)CN2CCCC2=O)cc1 (stereo not given)    inactive
CCOC(=O)[C@@H]1[C@H]2COc3cc(OC)ccc3[C@H]2N2C(=O)N(c3cccc(F)c3)C(=O)[C@@]12C    inactive
CC1(C(=O)NCc2cccc3ccccc23)CCN1Cc1ccc(-c2ccccc2)o1 (stereo not given)    inactive

[Q] Name the reported activity change, negative = cytotoxicity value associated with the compound O=C(CNc1ccc(F)cc1)c1ccccc1
[A] inactive
